Experiment: Cell Viability - LYMP2-009 (AID 968);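 note: cells exposed to compound for 24 h at 37 °C; nearly all actives have a fitted effect of over 55% in size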
Settings: LYMP2-009 lymphoblastoid cell viability; series mostly up to 92.2 µM
Results filed as inconclusive are left out. Active and inactive are the calls of the source. Calls come from the whole dose curve; as a rule, active = well fitted cell-killing curve with a large enough effect; inconclusive = small, poorly fitted or top-dose-only effect; inactive = flat fitted curve, though single readings scatter.
Labels: active, inactive

INSERT INTO results (molecule, qualitative_label) VALUES
  ('Oc1ccc2cc(SSc3ccc4cc(O)ccc4c3)ccc2c1', 'active'),
  ('CN1[C@H]2CC(OC(=O)[C@H](CO)c3ccccc3)C[C@H]1[C@H]1O[C@H]12 (stereo partly specified)', 'inactive'),
  ('CCCCCC/C(C=O)=C\c1ccccc1', 'inactive'),
  ('c1ccc2c(c1)-c1cccc3c1c-2cc1ccccc13', 'inactive'),
  ('CCCCCCCC[N+](CCCCCCCC)(CCCCCCCC)CCCCCCCC', 'active'),
  ('O=[N+]([O-])c1cc([N+](=O)[O-])c2ccc(S(=O)(=O)O)cc2c1O', 'inactive');

Values compiled from PubChem BioAssay (NCATS).
